Each entry below carries its reported Cyno T-cell Binding 0.2 uM (MFI).
Target: T1, cynomolgus monkey CD8 alpha on primary cynomolgus CD8+ T cells (cynomolgus monkey, UniProt P01732 23-235 (human entry))
T1 construct: also called Cyno CD8alpha; cyno CD8A
T1 sequence (P01732 other isoform, or with tags, fused parts or gaps limits assumed): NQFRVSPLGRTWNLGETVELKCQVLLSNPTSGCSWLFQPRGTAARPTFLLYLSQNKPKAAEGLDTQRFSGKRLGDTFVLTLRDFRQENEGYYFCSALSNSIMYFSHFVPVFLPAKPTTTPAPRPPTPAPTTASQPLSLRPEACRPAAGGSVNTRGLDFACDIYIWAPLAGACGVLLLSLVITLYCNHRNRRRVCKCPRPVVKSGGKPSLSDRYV
Test: flow cytometry, cyno CD8+ T cells
readout kind: Cyno T-cell Binding 0.2 uM (MFI)

| binder | measurement |
| --- | --- |
| P283FR9P1366_D7 (designed binder, FN3 domain) LPAPKNLVVSRVTEDSARLSWTAPDAAFDSFSIAYPELPVKGEAIVLTVPGSERSYDLTGLKPGTEYFVVIWGVKGGTYSGPLSAIFTT | 2580 |
| P283FR9P1366_H6 (designed binder, FN3 domain) LPAPKNLVVSRVTEDSARLSWTAPDAAFDSFDIAYPEWPVTGEAIVLTVPGSERSYDLTGLKPGTEYWVIIFGVKGGERSWPLSAIFTT | 19000 |
| P283HR7P1368_B12 (designed binder, FN3 domain) LPAPKNLVVSRVTEDSARLSWTAPDAAFDSFGIGYVEFTRAGEAISLSVPGSERSYDLTGLKPGTEYHVVIIGVKGGEPSHPLGAPFTT | 826 |
| P283BR9P1363_G5 (designed binder, FN3 domain) LPAPKNLVVSRVTEDSARLSWYRATTPAPHFDSFLIQYQESEKVGEAIVLTVPGSERSYDLTGLKPGTEYTVSIYGVDVKWEGNRPVASNPLSAIFTT | 4430 |

Recorded values, source patent US20210032312A1.
